- Test Summary: CEETOX_H295R_PROG: CeeTox H295R High-throughput Steroidogenesis Assay for Progesterone (PROG) (AID 2283442);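 for AC50: human H295R adrenal cells primed with 10 µM forskolin before dosing; progesterone secreted into medium by H295R cells measured by HPLC-MS/MS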
- Assay Setup: actives raise or lower the signal
Activity calls are given as the source filed them. Rule for the calls: active = hit-call score of the fitted dose curve at least 0.9, where 1 is the maximum; inactive = score below 0.9.
Reported Property: AC50

Below: 10 compounds and their reported AC50.
[
  {
    "Compound": "CCCCCCCCCCCCCCCO",
    "Result": "14.8 µM (active)"
  },
  {
    "Compound": "CC(C)(O)c1coc(S(=O)(=O)NC(=O)Nc2c3c(cc4c2CCC4)CCC3)c1",
    "Result": "19.4 µM (active)"
  },
  {
    "Compound": "CC[C@H](C)C(=O)O[C@H]1C[C@@H](C)C=C2C=C[C@H](C)[C@H](CC[C@@H]3C[C@@H](O)CC(=O)O3)[C@H]21",
    "Result": "inactive"
  },
  {
    "Compound": "COc1ccc(-n2nc(C(F)F)cc2-c2ccc(S(C)=O)cc2)cc1 (stereo unspecified)",
    "Result": "inactive"
  },
  {
    "Compound": "CC(C)=CCCC(C)=CC=O",
    "Result": "inactive"
  },
  {
    "Compound": "CC[C@H]1CC[C@H](NCc2cc3c(cc2OC)[C@H]2C[C@H]2C(=O)N3C)[C@H](c2ccccc2)N1",
    "Result": "inactive"
  },
  {
    "Compound": "CC(C)c1cccc(C(C)C)c1N1C(=O)c2ccc(O)cc2C1=O",
    "Result": "86.5 µM (active)"
  },
  {
    "Compound": "COc1ccc(/C=C/S(=O)(=O)NC(=O)c2ccc(C)cc2Cl)cc1",
    "Result": "inactive"
  },
  {
    "Compound": "Cn1c(=O)cc(Oc2ccc(F)cc2F)c2cnc(NCC(C)(C)O)nc21",
    "Result": "inactive"
  },
  {
    "Compound": "COC(=O)c1c(Cl)c(Cl)c(C(=O)OC)c(Cl)c1Cl",
    "Result": "inactive"
  }
]

Switching to the query record.
Sure, the documented AC50 for `CC1=CC(=O)CC(C)(C)C1` is inactive

====

- Test Summary: ATG_TGFb_CIS: Attagene CIS-FACTORIAL HepG2 Assay for human Transforming Growth Factor (TGF) (AID 2282967)
- Assay Setup: HepG2 Attagene CIS TGFb reporter, mRNA transcription; actives raise or lower the signal
Activity calls are given as the source filed them. The calls were made as follows: active = hit-call score of the fitted dose curve at least 0.9, where 1 is the maximum; inactive = score below 0.9.
Valid outcomes are listed here; reply with one: active, inactive

Some solved cases for reference:
[
  {
    "Compound": "CCCCC(CC)COC(=O)CCCCCCCCC(=O)OCC(CC)CCCC (stereo not drawn)",
    "Answer Label": "inactive"
  },
  {
    "Compound": "CCc1cc(SCc2sc(-c3ccc(C(F)(F)F)cc3)nc2CN2CCN(c3ccc(OC)cc3)CC2)ccc1OCC(=O)O",
    "Answer Label": "inactive"
  },
  {
    "Compound": "CCOc1cccc(-n2cc(C(=O)N3CCN(c4cc(C(=O)O)c5ccccc5c4)CC3)nc2-c2ccc(C)cc2)c1",
    "Answer Label": "active"
  },
  {
    "Compound": "O=C1OC(=O)C2C3C=CC(C3)C12 (stereo not drawn)",
    "Answer Label": "inactive"
  }
]

Problem: What did the test return for CC(C)CC(C)(O)C#CC(C)(O)CC(C)C (stereo not drawn) ?
Solution: inactive

Problem: What did the test return for `COC(=O)CC(=O)OC` ?
Solution: inactive

Problem: What did the test return for `NC(=O)NO` ?
Solution: inactive

Problem: What did the test return for O=C(O)CC(O)C(=O)O (stereo not drawn) ?
Solution: inactive

Problem: What did the test return for CC/C(=C\C(=N/O)C(N)=O)C(C)[N+](=O)[O-] (stereo not drawn) ?
Solution: inactive
